test system: Enterococcus spp.; assay: minimum inhibitory concentration (MIC); conditions: isolate (source animal id): 223
recorded-endpoint: minimum inhibitory concentration (µg/mL)
Respond numerically; units are µg/mL and should not be typed.

Prompt: Request the reported minimum inhibitory concentration associated with CC[C@H]1OC(=O)C[C@@H](O)[C@H](C)[C@@H](O[C@@H]2O[C@H](C)[C@@H](O)[C@H](N(C)C)[C@H]2O)[C@@H](CCN2CCCCC2)C[C@@H](C)C(=O)/C=C/C(C)=C/[C@@H]1CN1CCCCC1 [Tildipirosin]
Completion: 8

Prompt: Another molecule to check: NC[C@@H]1O[C@H](O[C@H]2[C@@H](O)[C@H](O[C@@H]3[C@@H](O)[C@H](N)C[C@H](N)[C@H]3O[C@H]3O[C@H](CN)[C@@H](O)[C@H](O)[C@H]3N)O[C@@H]2CO)[C@H](N)[C@@H](O)[C@@H]1O [Neomycin]
Completion: 16

Prompt: // same read-out, input: CN1C[C@@H]2C[C@H]1CN2c1cc2c(cc1F)c(=O)c(C(=O)O)cn2C1CC1 [Danofloxacin]
Completion: 0.5

---

system: Enterococcus spp.; experiment: minimum inhibitory concentration (MIC); conditions: isolate (source animal id): 2
recorded-endpoint: minimum inhibitory concentration (µg/mL)
Give your result in µg/mL as a bare value.

Prompt: What value of minimum inhibitory concentration has been reported for the following molecule? CC[C@H]1OC(=O)C[C@@H](O)[C@H](C)[C@@H](O[C@@H]2O[C@H](C)[C@@H](O)[C@H](N(C)C)[C@H]2O)[C@@H](CCN2C[C@H](C)C[C@H](C)C2)C[C@@H](C)C(=O)/C=C/C(C)=C/[C@@H]1CO[C@@H]1O[C@H](C)[C@@H](O)[C@@H](OC)[C@H]1OC
Completion: 8

Prompt: CCN1CCN(c2cc3c(cc2F)c(=O)c(C(=O)O)cn3C2CC2)CC1 , same question.
Completion: 0.25

Prompt: Please give the result for CN1C[C@@H]2C[C@H]1CN2c1cc2c(cc1F)c(=O)c(C(=O)O)cn2C1CC1 too.
Completion: 0.25

Prompt: Also CC[C@H]1OC(=O)C[C@@H](O)[C@H](C)[C@@H](O[C@@H]2O[C@H](C)[C@@H](O)[C@H](N(C)C)[C@H]2O)[C@@H](CCN2CCCCC2)C[C@@H](C)C(=O)/C=C/C(C)=C/[C@@H]1CN1CCCCC1 ?
Completion: 8

---

system: Escherichia coli; assay: minimum inhibitory concentration (MIC); settings: isolate (source animal id): 126
recorded-endpoint: minimum inhibitory concentration

Prompt: Form field: reported minimum inhibitory concentration of CC[C@H]1OC(=O)C[C@@H](O)[C@H](C)[C@@H](O[C@@H]2O[C@H](C)[C@@H](O[C@H]3C[C@@](C)(O)[C@@H](O)[C@H](C)O3)[C@H](N(C)C)[C@H]2O)[C@@H](CC=O)C[C@@H](C)C(=O)/C=C/C(C)=C/[C@@H]1CO[C@@H]1O[C@H](C)[C@@H](O)[C@@H](OC)[C@H]1OC [Tylosin]
Completion: > 32 µg/mL

Prompt: Thanks! And CN(C)[C@@H]1C(O)=C(C(N)=O)C(=O)[C@@]2(O)C(O)=C3C(=O)c4c(O)cccc4[C@@](C)(O)[C@H]3C[C@@H]12 [Tetracycline] ?
Completion: > 8 µg/mL

Prompt: Could you do the same for CC1(C)S[C@@H]2[C@H](NC(=O)[C@H](N)c3ccccc3)C(=O)N2[C@H]1C(=O)O [Ampicillin] , please?
Completion: 8 µg/mL
